# target.entity: AKAP-Lbc/DHPH-induced RhoA activation (Homo sapiens, UniProt P61586)
# Construct: AKAP-Lbc/DHPH (aa 1923–2336 of human AKAP-Lbc; NP_006729.4, NCBI)
# Sequence (P61586 whole entry, the tested form may be a part): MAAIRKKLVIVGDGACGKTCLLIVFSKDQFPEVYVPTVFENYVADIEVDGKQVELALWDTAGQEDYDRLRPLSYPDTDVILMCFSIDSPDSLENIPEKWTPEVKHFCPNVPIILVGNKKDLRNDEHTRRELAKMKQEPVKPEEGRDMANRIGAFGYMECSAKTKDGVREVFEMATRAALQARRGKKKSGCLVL
# protocol.summary: Guanine nucleotide exchange (GEF) assay with mant-GTP (screen and secondary assays)
assay.endpoint: pIC50
Remember the convention: pIC50 equals -log10 of concentration in molar.

Query :: Entry `COc1ccc(-c2coc3cc4oc(=O)c(C)c(C)c4cc23)cc1` : reported pIC50 = ?
Result :: 4.59

----------
# target.entity: interaction of AKAP-Lbc/DHPH and RhoA (Homo sapiens)
# Construct: His6-AKAP-Lbc/DHPH (aa 1972–2342 of human AKAP-Lbc; NP_006729.4); made in house
# protocol.summary: Homogeneous time-resolved fluorescence (HTRF) assay
# Assay type: binding
# measurement.setup: HTRF; text and figures; ± SEM; n = 3–15 in duplicate; read-out: IC50 for inhibition of the AKAP-Lbc/DHPH-RhoA interaction
assay.endpoint: pIC50
Remember the convention: pIC50 equals -log10 of concentration in molar.

Query :: Entry `COc1ccc(-c2coc3cc4oc(=O)c(CC(=O)O)c(C)c4cc23)cc1` : reported pIC50 = ?
Result :: 4.25

----------
# protocol.summary: Nephelometric solubility
# Format: physicochemical
# measurement.setup: DMEM + 10 % FCS, plasma or biological fluid, kinetic from dmso stock, maximal solubility in DMEM + 10 % FCS, 2 % DMSO final; read-out: Solubility 2 % DMSO
Reported solubility values for the following molecules.
Reply with just the number (in µM).

Worked cases, solubility given:
Query :: Entry `COc1ccc(-c2coc3c(C)c4oc(=O)c(CCC(=O)O)c(C)c4cc23)cc1` : reported solubility = ?
Result :: 70

Query :: Then this molecule: `CCOC(=O)CCc1c(C)c2ccc(OCc3ccc(OC)cc3)cc2oc1=O`
Result :: 30

Query :: Then this molecule: `COc1ccc(-c2coc3cc4oc(=O)ccc4cc23)cc1`
Result :: 45

Query :: Then this molecule: `COc1ccc(C(=O)COc2ccc3ccc(=O)oc3c2)cc1`
Result :: 30

Query :: Then this molecule: `Cc1c(CCC(=O)O)c(=O)oc2cc3occ(-c4ccc(Oc5ccccc5)cc4)c3cc12`
Result :: 100

Others:
Query :: Entry `Cc1c(C)c2cc3c(-c4cccnc4)coc3cc2oc1=O` : reported solubility = ?
Result :: 40

Query :: Then this molecule: `Cc1c(C)c2ccc(OCC(=O)c3cccnc3)cc2oc1=O`
Result :: 90

----------
# target.entity: interaction of AKAP-Lbc/DHPH and RhoA (Homo sapiens, UniProt P61586)
# Construct: His6-AKAP-Lbc/DHPH (aa 1972–2342 of human AKAP-Lbc; NP_006729.4); made in house
# Sequence (P61586 whole entry, the tested form may be a part): as above
# protocol.summary: Homogeneous time-resolved fluorescence (HTRF) assay
# Assay type: binding
# measurement.setup: IC50 ± SEM, Table 1; HTRF; '-' = no IC50, inactive (n.d. is used separately in S3 Table)
assay.endpoint: IC50

Worked cases, IC50 given:
Query :: Entry `COc1ccc(-c2coc3cc4oc(=O)c(CCC(=O)NCC(=O)O)c(C)c4cc23)cc1` : reported IC50 = ?
Result :: 64 µM

Query :: Then this compound: `Cc1c(CCC(=O)O)c(=O)oc2cc3occ(-c4ccc(-c5ccccc5)cc4)c3cc12`
Result :: 29.1 µM

Query :: Then this compound: `COc1ccc(-c2coc3cc4oc(=O)c(CCC(=O)O)c(C)c4cc23)cc1`
Result :: 34.1 µM

Others:
Query :: Entry `Cc1c(CCC(=O)O)c(=O)oc2cc3occ(-c4ccc(C(F)(F)F)cc4)c3cc12` : reported IC50 = ?
Result :: 47.8 µM
